- Assay remarks: folding enthalpy; higher = less favourable; fluorescence melt of hairpins on a sequencing array, two-state fit
- Cond: sodium 0.088 M
Recorded folding enthalpy for the following sequences
Measured attribute: folding enthalpy (kJ/mol)

INSERT INTO measurements (input_sequence, unit_info, endpoint_value) VALUES
  ('GAGCGCGGAAACGCGTTC ((.((((....)))).))', 'kJ/mol', -70.5),
  ('GCCACGCGAAAGCGTCGC ((.((((....)))).))', 'kJ/mol', -67.3),
  ('GTCGGGGCGAAAGCCGAC (((..(((....))))))', 'kJ/mol', -71.8),
  ('GCGTTCGAAAGAAAACGC ((((((....)))..)))', 'kJ/mol', -114),
  ('GAATCGCGAAAGCGGTTC (((.(((....))).)))', 'kJ/mol', -127);

Reference source for all entries: the array DNA melting data of Ke et al. (doi:10.1101/2024.01.08.574731)
